# tested.on: native soluble IL-6R in human plasma (human, UniProt P08887)
# experimental.details: ELISA 3, periplasmic extract; competitor BN-12; human plasma

[
  {
    "binder": "IL6RPMP101D1 (VHH) VHH: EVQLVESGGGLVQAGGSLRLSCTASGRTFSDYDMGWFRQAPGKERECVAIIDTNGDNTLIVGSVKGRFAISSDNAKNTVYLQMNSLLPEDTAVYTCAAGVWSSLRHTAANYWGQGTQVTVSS",
    "OD450 ratio sample/blank": 0.928
  },
  {
    "binder": "IL6RPMP101A3 (VHH) VHH: EVQLVESGGGLVQAGGPLRLSCTASGRTFTDYDMGWFRQAPGKEREVVAIIDTNGDNTLTVGSVKGRFAISSDNAKNTVYLQMNSLLPEDTAVYTCAAGAWSALRRSVANYWGQGTQVTVSS",
    "OD450 ratio sample/blank": 0.946
  },
  {
    "binder": "IL6RPMP101G4 (VHH) VHH: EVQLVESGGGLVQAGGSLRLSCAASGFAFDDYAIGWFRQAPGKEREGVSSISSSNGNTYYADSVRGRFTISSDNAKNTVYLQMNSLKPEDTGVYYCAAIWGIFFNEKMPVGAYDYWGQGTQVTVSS",
    "OD450 ratio sample/blank": 1.02
  },
  {
    "binder": "IL6RPMP100A10 (VHH) VHH: EVQLVESGGGLVQAGGSLRLSCAASGRGFSPYTMGWFRQAPGKERVFVAGISWSTGIAHYTDSVKGRFTISRDNAKNTGSLQMNSLKPEDTAVYYCAVVQTTKGNYDYWGQGTQVTVSS",
    "OD450 ratio sample/blank": 0.97
  },
  {
    "binder": "IL6RPMP101G1 (VHH) VHH: EVQLVESGGGLVQPGGSLRLSCAASGGTLDYYAIGWFRQAPGKEREGVSCISSSDGSTYYASSVKGRFTVSRDKAKNTVYLQMNSLKPEDTAVYYCAFVFTTAQAMGVPNNPYEYDFWGQGTQVTVSS",
    "OD450 ratio sample/blank": 0.639
  },
  {
    "binder": "IL6RPMP101H6 (VHH) VHH: EMQLVESGGGLVQAGGSLRLSCTASGRTFTDYDMGWFRQAPGKEREVVAIIDTNGDNTLTVGSVKGRFAISSDNAKNTVYLQMNSLLPEDTAVYTCAAGAWSALRRSVANYWGQGTQVTVSS",
    "OD450 ratio sample/blank": 0.954
  },
  {
    "binder": "IL6RPMP105H10 (VHH) VHH: EVQMVESGGGLVQAGGSLRLSCAASGFAFDDYAIGWFRQAPGKEREGVSSISSSNGNTYYADSVRGRFTISSDNAKNTVYLQMNSLKPEDAGVYYCAAIWGIFFNEKMPVGAYDYWGQGTQVTVSS",
    "OD450 ratio sample/blank": 1.02
  },
  {
    "binder": "IL6RPMP108E1 (VHH) VHH: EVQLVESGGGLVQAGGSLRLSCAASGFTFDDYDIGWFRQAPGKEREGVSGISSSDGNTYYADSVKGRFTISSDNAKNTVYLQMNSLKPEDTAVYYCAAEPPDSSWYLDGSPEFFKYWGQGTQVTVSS",
    "OD450 ratio sample/blank": 0.954
  }
]

Hey, just so you know, these numbers are from patent US10618964B2.
